- test-description: reversal of MRP1-mediated doxorubicin resistance, pilot screen, H69AR cells, doxorubicin co-treatment (AID 601)
- details: H69AR cells, CellTiter-Glo, 72 h; compound alone cytotoxicity; at 10 µM
measured-property: viability (%)
Enter your answer as a number in %; do not include the unit.

chemical_structure=Cc1nc2nc(Cc3ccccc3)[nH]n2c(=O)c1Cc1ccccc1 result=96.2
chemical_structure=CCn1nnnc1SCC(=O)Nc1nnc(C(C)C)s1 result=92.2
chemical_structure=CCN(CC)Cc1csc(C(N)=O)c1 result=98.1

## Input State the recorded viability for this entry: Nc1cc(-c2ccc(Br)cc2)nn1S(=O)(=O)c1ccccc1
## Output 88

## Input And O=C(NC1CCCCC1)c1ccc(S(=O)(=O)N2CCCCC2)cc1 ?
## Output 74.9

## Input What would you report for COc1ccc(Cn2c(CCCO)nc3ccccc32)cc1OC ?
## Output 102

###

Property: viability; scope: individual molecules
- test-description: growth suppression of PTEN-deleted HCT116, pilot screen, cell-based, HCT116 clonal line, CellTiter-Glo (AID 824);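 also: 0% = 20 µM Hyamine control and 100% = vehicle cell control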
- details: 60 h, at 10 µM, stronger effect = lower value
Records with an inconclusive call do not appear.
Please respond with the number in % and leave the unit unwritten.

Observe how each entry below is paired with its result.
molecule=Cc1ccc(CN2C(=O)/C(=C3\SC(N4CCOCC4)=NC3=O)c3cc(Br)ccc32)cc1 result=79.7
molecule=Cc1nc2ccccc2c2oc(C(=O)N3CCN(C4CCCCC4)CC3)cc12 result=57.5

## Input Name the recorded viability for CCCC(=O)NCCCc1nc2ccccc2n1CC .
## Output 101

## Input Then what about the molecule O=C(Cn1cnc2c(cnn2-c2ccccc2)c1=O)N1CCOCC1 ?
## Output 102

## Input Would you kindly repeat that for CCOc1ccccc1Nc1nc2ccccc2n2cnnc12 ?
## Output 85.7

## Input And Cc1cccc(N(CC(=O)Nc2c(C)n(C)n(-c3ccccc3)c2=O)S(C)(=O)=O)c1 ?
## Output 106

## Input Moving on to the next molecule: Cc1cccnc1NC(=O)c1c(O)c2ccccc2n(C)c1=O
## Output 98

## Input Also O=C(CSc1nccn1-c1cccc(Cl)c1)Nc1ccc2c(c1)OCCO2 , if possible.
## Output 93

## Input Can you handle C=CCOC(=O)c1[nH]c2c(c1C)C(=O)CC(c1cc(OC)c(OC)c(OC)c1)C2 (stereo unspecified) next?
## Output 66.7

## Input Item: CC(C)C(NS(=O)(=O)c1ccc2c3c(cccc13)C(=O)N2)C(=O)O (stereo unspecified)
## Output 93.6

## Input Try this molecule too: CC(C)C(NC(=O)C12CC3CC(CC(C3)C1)C2)C(=O)NC1=NCCS1 (stereo unspecified)
## Output 89.2

###

Recorded inhibition values for a group of compounds are listed next.
- test-description: 384-well plate pilot, post-Golgi transport modulator project, inhibition of yeast transport mutant growth (AID 636)
- details: absorbance 615 nm, about 18 h, stronger effect = higher value
Report only the number, with the unit % understood.

Some entries whose results are on file:
compound=CCOC(=O)c1[nH]c(C)c(C(=O)NCc2ccccn2)c1C measured_property=inhibition result=-5.07
compound="COc1cccc(-n2c(SC3CCOC3=O)nc3ccccc3c2=O)c1 (configuration not stated)" measured_property=inhibition result=-5.2
compound=COc1cccc(OC)c1C(=O)N1CCN(S(=O)(=O)c2ccccc2)CC1 measured_property=inhibition result=-3.42
compound=COC(=O)c1cc(=O)nc2sc(-c3cccs3)nn12 measured_property=inhibition result=-4.86
compound="CCN(CC)S(=O)(=O)c1ccc(NC2CCCc3ccccc32)nc1 (configuration not stated)" measured_property=inhibition result=-4.46

## Input Entry under review: Cn1c(=O)c2nc(Cl)n(Cc3ccc(Cl)cc3Cl)c2n(C)c1=O . Reported inhibition?
## Output -3.2

## Input Repeat with Cc1cc(Cl)ccc1OCCCC(=O)N1CCOCC1
## Output -5.39

## Input Then c1coc(-c2nnc(NC3=NCCC3)o2)c1 ?
## Output -5.34

## Input Also check COc1ccccc1-c1nc(C#N)c(N2CCN(c3ccccc3)CC2)o1
## Output -3.68

## Input Could you do the same for COc1ccc2c(c1)Sc1ccccc1N2CCN(C)C , please?
## Output -5.39

## Input Next compound up: Cc1nc(NCc2ccco2)c2oc3ccccc3c2n1
## Output -6.4

## Input Subsequent entry: Cc1csc2nc3ccccc3c(=O)n12
## Output -1.84

## Input Same for Cn1c(=O)c2ncn(CC(=O)NCCOc3ccc(C(C)(C)C)cc3)c2n(C)c1=O
## Output -5.45
